Parameter: OD450 at 0.002 µg/mL. Scope: all listed entries.
# test-target: T1, PD-1 protein (human, UniProt Q15116 25-167, limits assumed)
# T1 construct: also called human PD-1
# T1 sequence (Q15116 25-167 limits assumed): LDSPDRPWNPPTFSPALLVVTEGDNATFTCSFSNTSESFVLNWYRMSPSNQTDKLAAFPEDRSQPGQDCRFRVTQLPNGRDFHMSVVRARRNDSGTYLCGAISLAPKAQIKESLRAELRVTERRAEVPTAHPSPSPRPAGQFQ
# method-description: ELISA, PD-1 coated
Report the figure in OD450 without appending any unit label.

binder	u	OD450 at 0.002 µg/mL
504#SS12 (Fc fusion, not shown: a dimerising Fc or GST; small tags and cut ends, VHH-FC construct from HEK293 cells) VHH: EVQVVESGGGLVQPGGSLRLSCAVSGRGFSEHAMGWYRQSPGKQREFVAGVTSYGGTNYADSVKGRFTISRDNVGNTVFLQMNSLKPEDTAVYYCNYKRGHYPDGVSTYEYWGQGTQVTVSS	OD450	0.03
504#SS7 (Fc fusion, VHH-FC construct from HEK293 cells; not shown: The (G4S)3 linker leading to it is left out with it) VHH: QVQLVESGGGLVQAGGSLTLSCAASGRTFNSYAMGWFRQAPGKEREFVAAISQNGGSQGYAEAVKDRFTISRDNTNKVVALQMNSLKPEDTAAYYCAADGDASDRSYAPPRDYKYEYWGQGTQVTVSS	OD450	0.03
504#SS28 (Fc fusion, not shown: a dimerising Fc or GST; small tags and cut ends, VHH-FC construct from HEK293 cells) VHH: QVQLVESGGGSVQPGGSLRLSCAVSGFTLDYYDIGWFRQAPGKERDWISCISSSDGSQYYADSVKDRFFISRDNAKNTVYLQMNSLEPGDTAVYYCAADFDTYRFCSGFGPDAYSSWGQGTQVIVSS	OD450	0.14

Next up:
**Q:** Could you share which OD450 at 0.002 µg/mL value was measured for 504#SS25 (Fc fusion, not shown: a dimerising Fc or GST; small tags and cut ends, VHH-FC construct from HEK293 cells) VHH: QVQLVETGGGLVQAGGSLRLSCAASGDTIFISSMAWYRQAPGKERELVASIDSDDIIYYAATVKGRFTISRDNDKPTMYLQMDTLQPEDTAVYYCRVESQDYYFDYDRDSWGQGTQVTVSS ?
**A:** 0.03
